Assay: qHTS of pediatric cancer cell lines to identify multiple opportunities for drug repurposing: Primary screen for NB-EBc1 cells (AID 1347095)
Conditions: NB-EBc1 neuroblastoma viability, CellTiter-Glo luminescence, 48 h; series mostly up to 46 µM
Inconclusive results are not listed. The source made the active and inactive calls. The call rests on the fitted dose curve; in most records, active means well fitted cell-killing curve with a large enough effect; inconclusive means small, poorly fitted or top-dose-only effect; inactive means no such curve, though single readings can be large or run the other way.
Please state which outcome applies, choosing from YES (active), NO (inactive)

Example results:
Cc1ccccc1C(C(=O)NC1CCCCC1)N(C(=O)CNc1ccc(C#N)cc1)c1cccc(F)c1 (centres undefined) : YES
COc1cc2nccc(Oc3ccc(NC(=O)Nc4cc(C)on4)c(Cl)c3)c2cc1OC : YES

Could you please tell me the result logged for CNC1CCC(N(Cc2cccc(-c3ccncc3)c2)C(=O)c2sc3ccccc3c2Cl)CC1 (centres undefined) in this assay? YES

Proceed to COc1ccc(Cn2ccc3ccc(C(=O)NO)cc32)cc1 YES

Proceed to CC(C)=CCCC(C)=CCCC(C)=CCCC(C)=CCCC(C)=CCCC(C)=CCCC(C)=CCCC(C)=CCCC(C)=CCO NO

Proceed to CC[C@H]1OC(=O)[C@H](C)[C@@H](O[C@H]2C[C@@](C)(OC)[C@@H](O)[C@H](C)O2)[C@H](C)[C@@H](O[C@@H]2O[C@H](C)C[C@H](N(C)C)[C@H]2O)[C@](C)(O)C[C@H](C)C(=NOCOCCOC)[C@H](C)[C@@H](O)[C@]1(C)O NO

Proceed to CCCCC(F)(F)[C@@]1(O)CC[C@H]2[C@H](CC(=O)[C@@H]2CCCCCCC(=O)O)O1 NO

Proceed to CC(C)[C@H](O)C(=O)N[C@@H](C)C(=O)N[C@@H]1C(=O)N(C)CCc2ccccc21 NO

Proceed to CC(=O)NCCC(=O)N[C@@H](CCC(N)=O)C(=O)N[C@@H](CO)C(=O)N[C@@H](CCC(N)=O)C(=O)N[C@@H](CCC(N)=O)C(=O)N[C@H](C(=O)N[C@@H](Cc1ccccc1)C(=O)N[C@]1(C)CCCCCCC=CCCC[C@@](C)(C(=O)N[C@@H](CCC(N)=O)C(=O)N[C@@H](CC(N)=O)C(N)=O)NC(=O)[C@H](CC(C)C)NC(=O)[C@H](CC(C)C)NC(=O)[C@@H](CCCNC(=N)N)NC(=O)[C@H](Cc2c[nH]c3ccccc23)NC(=O)[C@H](CC(C)C)NC(=O)[C@H](CC(N)=O)NC1=O)[C@H](C)O NO

Proceed to CSc1cccc(Nc2ncc3cc(-c4c(Cl)cccc4Cl)c(=O)n(C)c3n2)c1 YES

Proceed to CCCCC(C)(C)[C@H](O)C=C[C@H]1[C@H](O)CC(=O)[C@H]1CC=CCCCC(=O)O YES

Proceed to CCOC(=O)c1c(CSc2ccccc2)n(C)c2cc(Br)c(O)c(CN(C)C)c12 NO

Proceed to CN(C)N=Nc1nc[nH]c1C(N)=O NO

Proceed to O=C(O)CCC=CCC[C@@H]1[C@H](N2CCCCC2)[C@@H](O)C[C@@H]1OCc1ccc(-c2ccccc2)cc1 NO

###

Assay: Quantitative High-Throughput drug screen in 47 multiple myeloma cell lines against the NCATS MIPE library collection: XG1_PLB cell viability assay (AID 1919866); further: nearly all actives have a fitted effect of over 35% in size
Settings: CellTiter-Glo ATP, 48 h; series mostly up to 45.8 µM
Records with an inconclusive call do not appear. Activity calls are given as the source filed them. Calls come from the whole dose curve; as a rule, active = well fitted cell-killing curve with a large enough effect; inconclusive = small, poorly fitted or top-dose-only effect, or effect the other way; inactive = no such curve, though single readings can be large or run the other way.
Please state which outcome applies, choosing from active, inactive

Example results:
Cc1cc(OCCCS(C)(=O)=O)cc(C)c1-c1cccc(COc2ccc3c(c2)OC[C@H]3CC(=O)O)c1 : active
CC(C)C[C@@H](N)[C@H](O)C(=O)N[C@H](C(=O)N[C@H](C(=O)N[C@@H](CC(=O)O)C(=O)O)C(C)C)C(C)C : active
CN1C(=O)C[C@H](C(=O)N[C@@H](Cc2cnc[nH]2)C(=O)N2CCC[C@@H]2C(N)=O)NC1=O : active
CCC(=O)NCC[C@@H]1CCc2ccc3c(c21)CCO3 : inactive
Cc1cc(-c2ncc(CC(=O)Nc3ccc(-c4cnccn4)cn3)cc2C)ccn1 : active
CNc1nc(Nc2ccc(C(=O)N3CCOCC3)cc2OC)ncc1Cl : active
COc1cc([C@H]2Oc3cc([C@H]4Oc5cc(O)cc(O)c5C(=O)[C@H]4O)ccc3O[C@H]2CO)ccc1O : active

Could you please tell me the result logged for COc1ccc2cc1Oc1ccc(cc1)C[C@H]1c3cc(c(OC)cc3CCN1C)Oc1c(OC)c(OC)cc3c1[C@H](C2)N(C)CC3 in this assay? active
